tested on: RXF 393 renal; assay: NCI-60 one-dose screen, 48 h; settings: 10 µM unless noted
Compounds without any hit were thinned out: in the full panel of roughly 83,000, 20% have a hit. The source made the active and inactive calls. The calls were made as follows: active = growth percent below 10; inactive = the rest.
Permitted responses: active, inactive

Query: Recorded test call requested for O=C1CC(Sc2n[nH]c(-c3ccncc3)n2)C(=O)N1c1ccc(Br)cc1 (stereo not drawn)
Result: inactive

Query: Recorded test call requested for N/C(=N\c1nc2ccccc2s1)NC(=O)Nc1ccccc1Br
Result: active

Query: Recorded test call requested for COc1ccc2oc(=O)c(C3(C)NC(=O)c4c(/C=C/C(=O)OC(C)(C)C)cccc4N3)cc2c1 (stereo not drawn)
Result: inactive

Query: Recorded test call requested for CSc1ccccc1NC(=O)c1ccc2nnn(/C(C#N)=C/c3ccccn3)c2c1
Result: active

Query: Recorded test call requested for CCCCCCCCc1ccc(C(=O)Nc2ccc(C)cc2C(=O)O)cc1C
Result: inactive

Query: Recorded test call requested for C=Cn1cc(C(=O)O)c(=O)c2cc(F)c(N3CCN(c4nccc(-c5nccs5)n4)CC3)cc21
Result: active

Query: Recorded test call requested for CC(C)CSc1nc(NCCc2c[nH]c3ccccc23)c(C#N)c(-c2ccc(Cl)cc2)n1
Result: inactive

Query: Recorded test call requested for COc1cc(C2CC(c3cc(OC)c(OC)c(OC)c3)=NN2C(C)=O)ccc1OCc1ccc(F)cc1 (stereo not drawn)
Result: inactive
